# test_summary: Drug level in cynomolgus monkey urine at 2 mg/kg, iv administered as single bolus dose measured at 24 hrs post dose by LC-MS/MS analysis
# Assay type: ADME, organism-based, Macaca fascicularis
# measurement_context: in vivo, 24 h, read-out: Drug uptake
property_measured: concentration
# do not omit the unit; it follows the number

For the molecule shown here, O=C(O)CSc1nnc(Br)n1-c1ccc(C2CC2)c2ccccc12 , give the reported concentration.
15.7 µM

###

# test_summary: Drug metabolism in cynomolgus monkey assessed as (+)-Lesinurad level in urine at 2 mg/kg, iv administered as single bolus dose measured at 24 hrs post dose by LC-MS/MS analysis
# Type: ADME, organism-based, Macaca fascicularis
# measurement_context: in vivo, read-out: Drug metabolism
property_measured: concentration

Please give the measured concentration for this compound: O=C(O)CSc1nnc(Br)n1-c1ccc(C2CC2)c2ccccc12
2800 nM

###

# test_summary: Drug recovery in cynomolgus monkey urine at 2 mg/kg, iv administered as single bolus dose measured at 24 hrs post dose by LC-MS/MS analysis
# Format: ADME, organism-based, Macaca fascicularis
# measurement_context: read-out: Drug recovery
property_measured: dose excreted at 24 h (%)
Numbers only, in %.

Bench note: what dose excreted at 24 h did O=C(O)CSc1nnc(Br)n1-c1ccc(C2CC2)c2ccccc12 [LESINURAD] show?
20

###

# system_name: CYP2C9 (Homo sapiens, UniProt P11712)
# Sequence (P11712 whole entry): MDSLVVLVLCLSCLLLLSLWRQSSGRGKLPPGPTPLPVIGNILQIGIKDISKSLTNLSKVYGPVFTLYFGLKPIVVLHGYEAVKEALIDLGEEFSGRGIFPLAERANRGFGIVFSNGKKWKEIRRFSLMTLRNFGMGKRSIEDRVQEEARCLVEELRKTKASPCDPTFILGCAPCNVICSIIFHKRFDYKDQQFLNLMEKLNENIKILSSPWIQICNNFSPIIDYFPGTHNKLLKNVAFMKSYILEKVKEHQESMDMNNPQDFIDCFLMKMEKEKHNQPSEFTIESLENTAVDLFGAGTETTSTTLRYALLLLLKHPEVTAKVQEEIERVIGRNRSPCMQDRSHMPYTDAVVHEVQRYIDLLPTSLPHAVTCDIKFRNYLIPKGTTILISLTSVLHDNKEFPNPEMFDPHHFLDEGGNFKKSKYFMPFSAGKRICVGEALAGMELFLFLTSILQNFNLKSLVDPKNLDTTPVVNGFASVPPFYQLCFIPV
# test_summary: Drug metabolism in human liver microsomes assessed as CYP2C9-mediated metabolism by measuring compound half life at 250 pmol/ml preincubated for 10 mins followed by NADPH addition measured after 10 mins by LC-MS/MS analysis
# Format: ADME
# measurement_context: liver microsomes
property_measured: half-life at 250 pmol/ml (h)
Numbers only, in h.

Fill in: half-life at 250 pmol/ml of O=C(O)CSc1nnc(Br)n1-c1ccc(C2CC2)c2ccccc12 is ___
1.5

###

# system_name: UniProtKB P11712
# test_summary: Drug metabolism in human liver microsomes assessed as CYP2C9-mediated metabolism by measuring parent compound remaining at 10 pmol/ml after 60 mins in absence of NADPH by LC-MS/MS analysis
# Format: ADME
# measurement_context: read-out: Stability
property_measured: remaining at 1 h, 10 pmol/ml

Query (compound): O=C(O)Cc1ccccc1Nc1c(Cl)cccc1Cl ; field requested: remaining at 1 h, 10 pmol/ml
112%

###

# system_name: CYP2C9 (Homo sapiens)
# test_summary: Drug metabolism in human liver microsomes assessed as CYP2C9-mediated metabolism by measuring parent compound remaining at 250 pmol/ml after 60 mins in presence of NADPH by LC-MS/MS analysis
# Assay type: ADME
# measurement_context: liver microsomes, read-out: Stability
property_measured: remaining at 1 h, 250 pmol/ml (%)
Give bare numbers, in %.

For O=C(O)CSc1nnc(Br)n1-c1ccc(C2CC2)c2ccccc12 [LESINURAD] , what is its reported remaining at 1 h, 250 pmol/ml?
61.8

###

# system_name: Voltage-gated inwardly rectifying potassium channel KCNH2 (Homo sapiens, UniProt Q12809)
# Sequence (Q12809 whole entry): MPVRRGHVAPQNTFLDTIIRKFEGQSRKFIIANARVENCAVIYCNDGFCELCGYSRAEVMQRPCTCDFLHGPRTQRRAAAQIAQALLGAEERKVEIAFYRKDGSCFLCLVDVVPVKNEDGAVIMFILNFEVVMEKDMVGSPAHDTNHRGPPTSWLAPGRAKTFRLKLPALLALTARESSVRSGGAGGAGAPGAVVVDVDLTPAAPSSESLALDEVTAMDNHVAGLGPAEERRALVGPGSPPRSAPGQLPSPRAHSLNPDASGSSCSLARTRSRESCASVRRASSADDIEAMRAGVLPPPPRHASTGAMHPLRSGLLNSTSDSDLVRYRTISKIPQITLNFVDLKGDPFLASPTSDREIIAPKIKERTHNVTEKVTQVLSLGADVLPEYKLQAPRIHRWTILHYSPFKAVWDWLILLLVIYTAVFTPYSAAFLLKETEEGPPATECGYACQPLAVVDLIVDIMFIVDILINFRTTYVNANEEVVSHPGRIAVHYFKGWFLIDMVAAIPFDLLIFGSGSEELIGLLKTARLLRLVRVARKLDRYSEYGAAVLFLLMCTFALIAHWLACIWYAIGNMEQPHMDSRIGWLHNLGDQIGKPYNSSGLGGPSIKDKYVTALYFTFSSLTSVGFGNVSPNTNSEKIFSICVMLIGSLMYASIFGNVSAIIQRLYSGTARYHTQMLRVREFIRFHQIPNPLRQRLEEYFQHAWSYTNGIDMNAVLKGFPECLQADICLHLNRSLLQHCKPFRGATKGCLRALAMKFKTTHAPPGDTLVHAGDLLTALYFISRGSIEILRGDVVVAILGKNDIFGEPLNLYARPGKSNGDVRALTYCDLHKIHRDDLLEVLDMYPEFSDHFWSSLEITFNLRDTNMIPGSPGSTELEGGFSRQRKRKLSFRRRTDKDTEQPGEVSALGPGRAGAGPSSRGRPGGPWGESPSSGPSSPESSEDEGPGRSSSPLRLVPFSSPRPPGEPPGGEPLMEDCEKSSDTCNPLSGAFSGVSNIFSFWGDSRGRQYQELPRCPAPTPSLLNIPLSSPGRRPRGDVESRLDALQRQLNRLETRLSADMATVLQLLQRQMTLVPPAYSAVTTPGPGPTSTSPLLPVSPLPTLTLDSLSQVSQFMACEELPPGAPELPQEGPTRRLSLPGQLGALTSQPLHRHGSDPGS
property_measured: IC50

Value lookup for IC50; key = O=C(O)CSc1nnc(Br)n1-c1ccc(C2CC2)c2ccccc12
> 30 µM

###

# system_name: CYP2C9 (Homo sapiens)
# test_summary: Drug metabolism in human liver microsomes assessed as CYP2C9-mediated metabolism by measuring parent compound remaining at 250 pmol/ml after 60 mins in absence of NADPH by LC-MS/MS analysis
# Format: ADME
# measurement_context: liver microsomes, read-out: Stability
property_measured: remaining at 1 h, 250 pmol/ml (%)
Answers are plain numbers, in %.

# get_value(readout= remaining at 1 h, 250 pmol/ml, system= CYP2C9 (Homo sapiens)) for O=C(O)CSc1nnc(Br)n1-c1ccc(C2CC2)c2ccccc12 [LESINURAD]
110
